# EXPERIMENT NOTES: Solubility of hydrogen fumarate salt 11 (1000 mg scale-up batch)
# Type: physicochemical
# APPLIED CONDITIONS: organic solvent or mixture; EtOAc, 50° C.
VALUE KIND: solubility

Please report the recorded solubility for CC(C)c1nc(-c2cnc(N)c(OC(F)(F)F)c2)cn1C12CC(N3CCOCC3)(C1)C2.O=C(O)/C=C/C(=O)O . < 10000 µg/mL

====

# EXPERIMENT NOTES: Stability (50° C., 40° C./75% RH, light; 1 week)
# Type: physicochemical
# APPLIED CONDITIONS: light, bulk, 1 week

COMPOUND | XRPD change?
CC(C)c1nc(-c2cnc(N)c(OC(F)(F)F)c2)cn1C12CC(N3CCOCC3)(C1)C2.O=C(O)/C=C/C(=O)O [Example 11] | no
CC(C)c1nc(-c2cnc(N)c(OC(F)(F)F)c2)cn1C12CC(N3CCOCC3)(C1)C2.O=C(O)/C=C\C(=O)O [Example 9] | no
CC(C)c1nc(-c2cnc(N)c(OC(F)(F)F)c2)cn1C12CC(N3CCOCC3)(C1)C2.O=C(O)CC(O)(CC(=O)O)C(=O)O [Example 8] | no

====

# EXPERIMENT NOTES: Solubility of hydrogen fumarate salt 11 (1000 mg scale-up batch)
# Assay type: physicochemical
# APPLIED CONDITIONS: organic solvent or mixture; Dioxane, RT
VALUE KIND: solubility

Please report the recorded solubility for CC(C)c1nc(-c2cnc(N)c(OC(F)(F)F)c2)cn1C12CC(N3CCOCC3)(C1)C2.O=C(O)/C=C/C(=O)O [Example 11] . < 20 mg/mL

====

# EXPERIMENT NOTES: Solubility of the Example 1 compound in organic solvents
# Format: physicochemical
# APPLIED CONDITIONS: 25 °C, organic solvent or mixture, thermodynamic from solid; DMSO, RT
# Protocol: Solubility of the Example 1 compound in various organic solvents was determined by the following procedure. […] The mixture was stirred at 800 rpm at 25° C. for 2 hr. If the compound was not dissolved completely by this time, the temperature was then raised to 50° C. and stirring at 800 rpm was continued overnight. […] In either case, the resulting material was evaluated by XRPD.
VALUE KIND: solubility at 2 h

Please report the recorded solubility at 2 h for CC(C)c1nc(-c2cnc(N)c(OC(F)(F)F)c2)cn1C12CC(N3CCOCC3)(C1)C2 . > 50 mg/mL

====

# EXPERIMENT NOTES: Solubility of the Example 1 compound in organic solvents
# Format: physicochemical
# APPLIED CONDITIONS: 25 °C, organic solvent or mixture, thermodynamic from solid; DMF, RT
VALUE KIND: solubility at 2 h

Please report the recorded solubility at 2 h for CC(C)c1nc(-c2cnc(N)c(OC(F)(F)F)c2)cn1C12CC(N3CCOCC3)(C1)C2 . > 50 mg/mL

====

# EXPERIMENT NOTES: Solubility of the Example 1 compound in organic solvents
# Format: physicochemical
# APPLIED CONDITIONS: aqueous with cosolvent or surfactant or cyclodextrin, thermodynamic from solid; 1/1 (v/v) EtOH/H2O, 50° C.
VALUE KIND: solubility

Please report the recorded solubility for CC(C)c1nc(-c2cnc(N)c(OC(F)(F)F)c2)cn1C12CC(N3CCOCC3)(C1)C2 . < 50 mg/mL
